- Tested on: Panel NCI-60 (60 carcinoma cell lines)
- assay.notes: Antiproliferative activity against human NCI60 cell line measured as mean graph midpoint
- Format: functional
// boundary case: Activity equal to 0.7 µM maps to n; strictly smaller maps to y

Request: Hi there! Is Activity for COc1cc2c3c(n(CCN)c(=O)c2cc1OC)-c1cc2c(cc1C3=O)OCO2.Cl below 0.7 µM, do you know?
Result: y

Request: Another compound to check: Cl.c1c2c(cc3c1OCO3)-c1ncc3cc4c(cc3c1C2)OCO4
Result: y

Request: Another compound to check: COc1cc2c3c(n(CCCCO)c(=O)c2cc1OC)-c1cc2c(cc1C3=O)OCO2
Result: n

Request: Another compound to check: O=C1c2cc3c(cc2-c2c1c1ccccc1c(=O)n2CCCNCCCO)OCO3
Result: n

Request: Another compound to check: COc1cc2c3c(n(CCCNCCN)c(=O)c2cc1OC)-c1cc2c(cc1C3=O)OCO2.Cl.Cl
Result: y

Request: Another compound to check: COc1cc2c3c(n(Cc4ccccc4)c(=O)c2cc1OC)-c1cc2c(cc1C3=O)OCO2
Result: n

Request: Another compound to check: CC[C@]1(O)C[C@@H]2CN(CCc3c([nH]c4ccccc34)[C@@](C(=O)OC)(c3cc4c(cc3OC)N(C)[C@H]3[C@@](O)(C(=O)OC)[C@H](OC(C)=O)[C@]5(CC)C=CCN6CC[C@]43[C@@H]65)C2)C1.O=S(=O)(O)O [VINBLASTINE SULFATE]
Result: y

* * *

- Test system: Panel NCI-60 (60 carcinoma cell lines)
- assay.notes: Antiproliferative activity against human NCI60 cell line measured as mean graph midpoint
- Assay type: functional
measured.quantity: Activity (µM)
Write the answer as a number in µM, unit excluded.

Request: # input compound: [N-]=[N+]=NCCCn1c2c(c3ccc([N+](=O)[O-])cc3c1=O)C(=O)c1cc3c(cc1-2)OCO3 ; wanted: its Activity
Result: 0.098

Request: Another compound to check: COc1cc2c3c(n(C)c(=O)c2cc1OC)-c1cc2c(cc1/C3=C/CCCI)OCO2
Result: 8.49

Request: Another compound to check: COc1cc2c3c(n(CCCNCCNCCN)c(=O)c2cc1OC)-c1cc2c(cc1C3=O)OCO2.Cl
Result: 2.4

Request: Another compound to check: CCCCn1c2c(c3cc(OC)c(OC)cc3c1=O)C(=O)c1cc3c(cc1-2)OCO3
Result: 41.6

Request: Another compound to check: Cl.O=C1c2ccccc2-c2c1c1ccccc1c(=O)n2CCCNCCCn1ccnc1
Result: 1.01

Request: Another compound to check: Cl.NCCCCn1c2c(c3ccccc3c1=O)C(=O)c1ccccc1-2
Result: 0.156

Request: Another compound to check: Cn1c2c(c3ccccc3c1=O)C(=O)c1cc3c(cc1-2)OCO3
Result: 45

Request: Another compound to check: COc1cc2c(cc1[N+](=O)[O-])C(=O)N(CCCBr)[C@@H]1c3cc4c(cc3C(=O)[C@H]21)OCO4
Result: 0.016

Request: Another compound to check: O=C1c2ccccc2-c2c1c1ccccc1c(=O)n2CCCCCO
Result: 14.4

Request: Another compound to check: COc1cc2c(cc1OC)[C@H]1C(=O)c3cc4c(cc3[C@H]1N(Cc1ccccc1)C2=O)OCO4
Result: 1.18

Request: Another compound to check: CC(=O)O[C@H]1C(=O)[C@@]2(C)[C@H]([C@H](OC(=O)c3ccccc3)[C@]3(O)C[C@H](OC(=O)[C@H](O)[C@@H](NC(=O)c4ccccc4)c4ccccc4)C(C)=C1C3(C)C)[C@]1(OC(C)=O)CO[C@@H]1C[C@@H]2O [PACLITAXEL]
Result: 0.0253

Request: Another compound to check: Cl.NCCCn1c2c(c3ccccc3c1=O)C(=O)c1ccccc1-2
Result: 0.315

Request: Another compound to check: Cl.NCCCn1c2c(c3ccc([N+](=O)[O-])cc3c1=O)C(=O)c1ccccc1-2
Result: 0.146

Request: Another compound to check: COc1cc2c3c(n(C)c(=O)c2cc1OC)-c1cc2c(cc1C3=O)OCO2
Result: 20

Request: Another compound to check: COc1cc2c3c(n(CCCN)c(=O)c2cc1OC)-c1cc2c(cc1C3=O)OCO2.Cl
Result: 0.16

Request: Another compound to check: Cl.NCCCn1c2c(c3ccccc3c1=O)C(=O)c1cc3c(cc1-2)OCO3
Result: 0.251

Request: Another compound to check: CC[C@@]1(O)C(=O)OCc2c1cc1n(c2=O)Cc2cc3ccccc3nc2-1 [CAMPTOTHECIN]
Result: 0.0405
